Listing of entries alongside the reported Kd.
# tgt: T1, IFN-α4a (human, UniProt P05014 24-189)
# T1 construct: also called IFN-αM1
# method_notes: ProteOn, one antigen concentration
quantity_measured: Kd (nM)

IFWM3291 (antibody, V domains shown, VH IFWH591, VL IFWL999; converted mAb; also called IFWB3026) VH: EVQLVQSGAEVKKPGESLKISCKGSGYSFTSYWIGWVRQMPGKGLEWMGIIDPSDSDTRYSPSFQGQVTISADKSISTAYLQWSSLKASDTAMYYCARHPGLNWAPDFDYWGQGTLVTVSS VL: DIQMTQSPSSLSASVGDRVTITCRASQSIDEFLNWYQQKPGKAPKLLIYFASSLQSGVPSRFSGSGSGTDFTLTISSLQPEDFATYYCQQAHSFPLTFGQGTKVEIK	0.317
IFWM3359 (antibody, V domains shown, VH IFWH624, VL IFWL1047; converted mAb; also called IFWB3094) VH: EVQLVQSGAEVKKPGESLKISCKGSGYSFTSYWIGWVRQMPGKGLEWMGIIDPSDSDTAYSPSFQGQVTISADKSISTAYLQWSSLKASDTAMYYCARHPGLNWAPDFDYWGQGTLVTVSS VL: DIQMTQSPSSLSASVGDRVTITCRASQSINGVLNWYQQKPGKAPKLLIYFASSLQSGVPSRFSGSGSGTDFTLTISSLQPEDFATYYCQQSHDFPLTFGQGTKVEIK	0.147
IFWM3304 (antibody, V domains shown, VH IFWH591, VL IFWL997; converted mAb; also called IFWB3039) VH: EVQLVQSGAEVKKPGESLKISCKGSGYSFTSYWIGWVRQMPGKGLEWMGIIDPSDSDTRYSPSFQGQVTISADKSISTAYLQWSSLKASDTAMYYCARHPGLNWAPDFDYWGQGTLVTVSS VL: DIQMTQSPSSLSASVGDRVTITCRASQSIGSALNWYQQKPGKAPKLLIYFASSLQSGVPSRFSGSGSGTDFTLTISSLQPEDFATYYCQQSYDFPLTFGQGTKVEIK	0.12
